assay: Cmax in C57BL/6J mouse at 50 mg/kg/day, ig by HPLC-MS/MS analysis; assay type: ADME, organism-based; parameters: dose 50 mg/kg/day, route intragastric; details: in vivo, po
quantity name: Cmax (ng/mL)
Field: numeric (ng/mL). Do not append units.

Request: GET /values?readout=Cmax&item= CCc1ccccc1COc1ccccc1C(=O)Nc1cccnc1
Response: 6120

* * *

assay: Apparent oral clearance in C57BL/6J mouse at 50 mg/kg/day, ig by HPLC-MS/MS analysis; assay type: ADME, organism-based; details: in vivo
quantity name: CL/F (mL/min)
Respond numerically; units are mL/min and should not be typed.

Request: Recorded CL/F of CCc1ccccc1COc1ccccc1C(=O)Nc1cccnc1 , please.
Response: 180

* * *

assay: Cmax in C57BL/6J mouse at 25 mg/kg/day, ig by HPLC-MS/MS analysis; format: ADME, organism-based; parameters: dose 25 mg/kg/day, route intragastric; settings: in vivo, po
quantity name: Cmax
Please report the result as a number followed by the unit.

Request: # input compound: CCc1ccccc1COc1ccccc1C(=O)Nc1cccnc1 ; wanted: its Cmax
Response: 2530 ng/mL

* * *

molecular target: Phosphatidylcholine:ceramide cholinephosphotransferase 2 (Homo sapiens); assay: Inhibition of SMS2 (unknown origin) over-expressed in H5 insect cell lysate at 100 uM using C6-NBD-Ceramide and DMPC as substrates preincubated for 30 mins followed by substrate addition and measured after 2 hrs by TLC or HPLC method relative to control; type: subcellular
The source made the active and inactive calls. No cut-off for these calls is given here.
quantity name: inhibition

Here is how some molecules turned out for inhibition.
molecule	measurement
c1ccc(COc2ccccc2CNc2ccccc2)cc1	inactive
O=C(Nc1ccccc1)c1ccccc1OCc1ccccc1	69%
NC(=O)C(Nc1ccccc1)c1ccccc1OCc1ccccc1 (stereo unspecified)	39%
c1ccc(COc2ccccc2C(Nc2ccccc2)c2nnn[nH]2)cc1 (stereo unspecified)	inactive
CC(C#N)(Nc1ccccc1)c1ccccc1OCc1ccccc1 (stereo unspecified)	58%

Then there is this molecule:
Request: Fill in the blank: the reported inhibition of N#CC(Nc1ccccc1)c1ccccc1OCc1ccccc1 (stereo unspecified) is ____.
Response: 75%

* * *

test: Apparent oral clearance in C57BL/6J mouse at 100 mg/kg/day, ig by HPLC-MS/MS analysis; type: ADME, organism-based; conditions: in vivo
quantity name: CL/F (mL/min)
Give the value, in units of mL/min, as a plain number.

Request: Can you look up the measured CL/F of CCc1ccccc1COc1ccccc1C(=O)Nc1cccnc1 for me?
Response: 143

* * *

experiment: AUC (0 to 8 hrs) in C57BL/6J mouse at 100 mg/kg/day, ig by HPLC-MS/MS analysis; type: ADME, organism-based; parameters: dose 100 mg/kg/day, time < 8 hr, route intragastric; conditions: in vivo, po
quantity name: AUC at 8 h (ng·h/mL)
The response must be a number in ng·h/mL with no trailing unit.

Request: Find the recorded AUC at 8 h belonging to CCc1ccccc1COc1ccccc1C(=O)Nc1cccnc1 and report it.
Response: 13200

* * *

experiment: AUC (0 to 8 hrs) in C57BL/6J mouse at 50 mg/kg/day, ig by HPLC-MS/MS analysis; assay type: ADME, organism-based; design: time < 8 hr, dose 50 mg/kg/day, route intragastric; settings: in vivo, po
quantity name: AUC at 8 h (ng·h/mL)
State the answer as a number, implicitly in ng·h/mL.

Request: Can you look up the measured AUC at 8 h of CCc1ccccc1COc1ccccc1C(=O)Nc1cccnc1 for me?
Response: 6260

* * *

assay: MRT (0 to 8 hrs) in C57BL/6J mouse at 50 mg/kg/day, ig by HPLC-MS/MS analysis; type: ADME, organism-based; details: in vivo, po
quantity name: MRT

Request: Field request: MRT | item: CCc1ccccc1COc1ccccc1C(=O)Nc1cccnc1
Response: 1.66 h

* * *

test: MRT (0 to infinity) in C57BL/6J mouse at 50 mg/kg/day, ig by HPLC-MS/MS analysis; format: ADME, organism-based; conditions: in vivo, po
quantity name: MRT inf (h)
Quick reminder: number only, in h, skip the unit.

Request: Consider the compound shown here: CCc1ccccc1COc1ccccc1C(=O)Nc1cccnc1 What is its recorded MRT inf?
Response: 2.28

* * *

assay: AUC (0 to 8 hrs) in C57BL/6J mouse at 25 mg/kg/day, ig by HPLC-MS/MS analysis; type: ADME, organism-based; design: dose 25 mg/kg/day, time < 8 hr, route intragastric; conditions: in vivo, po
quantity name: AUC at 8 h (ng·h/mL)
Provide the reading as a plain figure in ng·h/mL.

Request: Given the compound CCc1ccccc1COc1ccccc1C(=O)Nc1cccnc1 , what is its reported AUC at 8 h?
Response: 1990

* * *

experiment: MRT (0 to infinity) in C57BL/6J mouse at 25 mg/kg/day, ig by HPLC-MS/MS analysis; format: ADME, organism-based; details: in vivo, po
quantity name: MRT inf (h)
All answers are understood in h, so give the number only.

Request: I am curious: what MRT inf value has been reported for CCc1ccccc1COc1ccccc1C(=O)Nc1cccnc1 ?
Response: 3.64

* * *

biological target: UniProt Q86VZ5
Sequence (Q86VZ5 whole entry): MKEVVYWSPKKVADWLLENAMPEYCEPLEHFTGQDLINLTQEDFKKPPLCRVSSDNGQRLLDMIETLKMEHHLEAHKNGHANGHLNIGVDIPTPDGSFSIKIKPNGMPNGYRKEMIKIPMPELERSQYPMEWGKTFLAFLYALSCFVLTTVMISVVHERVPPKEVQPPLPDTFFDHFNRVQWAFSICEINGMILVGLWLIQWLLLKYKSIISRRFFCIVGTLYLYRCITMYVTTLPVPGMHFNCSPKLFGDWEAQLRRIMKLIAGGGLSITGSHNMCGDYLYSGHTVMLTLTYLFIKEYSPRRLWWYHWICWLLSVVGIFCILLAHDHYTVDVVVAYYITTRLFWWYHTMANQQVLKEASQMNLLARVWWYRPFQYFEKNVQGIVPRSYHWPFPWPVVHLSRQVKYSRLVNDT
quantity name: pIC50
Bear in mind: pIC50 is minus log10 of a mol/L concentration; give just that figure.

Request: Name the recorded pIC50 for CCc1ccccc1COc1ccccc1C(=O)Nc1cccnc1 .
Response: 3.87

* * *

assay: MRT (0 to 8 hrs) in C57BL/6J mouse at 25 mg/kg/day, ig by HPLC-MS/MS analysis; format: ADME, organism-based; details: in vivo, po
quantity name: MRT (h)
Note: unit h is implicit; provide only the numeric part.

Request: Please report the recorded MRT for CCc1ccccc1COc1ccccc1C(=O)Nc1cccnc1 .
Response: 1.9

* * *

assay: Half life in C57BL/6J mouse at 100 mg/kg/day, ig by HPLC-MS/MS analysis; format: ADME, organism-based; conditions: in vivo, po
quantity name: half-life (h)
API: value field is a number in h; no unit string.

Request: What does the record list as half-life for CCc1ccccc1COc1ccccc1C(=O)Nc1cccnc1 ?
Response: 2.51

* * *

assay: Ratio of drug level in liver to plasma in C57BL/6J mouse at 100 mg/kg/day, ig qd for 7 days measured on day 7; type: ADME, organism-based; conditions: po
quantity name: Kp at 168 h
Give the figure by itself; no unit, no explanation.

Request: State the recorded Kp at 168 h for this entry: CCc1ccccc1COc1ccccc1C(=O)Nc1cccnc1
Response: 5

* * *

Biological target: Phosphatidylcholine:ceramide cholinephosphotransferase 2 (Homo sapiens)
Sequence (Q8NHU3 whole entry): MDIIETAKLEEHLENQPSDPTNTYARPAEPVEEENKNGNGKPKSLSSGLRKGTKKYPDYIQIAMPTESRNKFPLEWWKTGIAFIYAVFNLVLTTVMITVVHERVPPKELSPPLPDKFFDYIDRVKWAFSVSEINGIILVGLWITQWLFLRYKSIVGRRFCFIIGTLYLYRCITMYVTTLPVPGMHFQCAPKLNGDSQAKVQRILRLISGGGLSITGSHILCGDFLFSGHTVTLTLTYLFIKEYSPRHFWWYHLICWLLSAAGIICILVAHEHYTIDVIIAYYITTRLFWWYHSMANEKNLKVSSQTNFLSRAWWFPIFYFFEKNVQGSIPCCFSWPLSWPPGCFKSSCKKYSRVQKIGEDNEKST
Test: Inhibition of SMS2 (unknown origin) over-expressed in H5 insect cell lysate using C6-NBD-Ceramide and DMPC as substrates preincubated for 30 mins followed by substrate addition and measured after 2 hrs by TLC or HPLC method
Format: subcellular
Measured IC50, listed per entry.
The response must be a number in nM with no trailing unit.

Here's what some known entries look like.
compound	system	units symbol	measurement
CCCCCCCOc1ccc(Cl)cc1COc1ccccc1C(=O)Nc1cccnc1	Phosphatidylcholine:ceramide cholinephosphotransferase 2 (Homo sapiens)	nM	430
O=C(Nc1cccnc1)c1ccccc1OCc1ccccc1OCCCCCCCl	Phosphatidylcholine:ceramide cholinephosphotransferase 2 (Homo sapiens)	nM	470
O=C(Nc1cccnc1)c1ccccc1OCc1ccccc1C(F)(F)F	Phosphatidylcholine:ceramide cholinephosphotransferase 2 (Homo sapiens)	nM	2100

Request: Need IC50 of CC(C#N)(Nc1ccccc1)c1ccccc1OCc1ccccc1 (stereo unspecified) , thanks.
Response: 34000

Request: Would you mind doing Cc1cccc(C)c1COc1ccccc1C(=O)Nc1cccnc1 as well?
Response: 890

Request: Try the compound O=C(NCc1ccco1)c1ccccc1OCc1ccccc1
Response: 49000

Request: What would you report for COc1ccc(OC)c(COc2ccccc2C(=O)Nc2cccnc2)c1 ?
Response: 2800

Request: Thanks! And Cc1c(Cl)cccc1COc1ccccc1C(=O)Nc1cccnc1 ?
Response: 3800

Request: Okay, and O=C(Nc1cccnc1)c1ccccc1OCc1cc(Cl)ccc1Cl ?
Response: 990

Request: Subsequent entry: O=C(Nc1cccnc1)c1ccccc1OCc1ccccc1OCCCCCCl
Response: 670

Request: // next record N#Cc1ccccc1COc1ccccc1C(=O)Nc1cccnc1
Response: 31800

Request: // same read-out, input: Cc1ccc(Cl)cc1COc1ccccc1C(=O)Nc1cccnc1
Response: 1100

Request: Cool, now O=C(Nc1cccnc1)c1ccccc1OCc1cc(F)ccc1Cl
Response: 740
